Assay: Pharmacokinetics in rats after single iv, po or sc dose (plasma and brain)
Type: in vivo, Sprague-Dawley rats
Conditions: male, Sprague-Dawley, rat, plasma, po, 1.22 mg/kg, rat plasma, PO 1.22 mg eq./kg; read-out: AUC(0-∞)
quantity_name: AUC(0-inf) (µM·h)

> print(dat)
                                  compound  quantity.name  experimental.result
1  CC12CC3CC(C)(C1)CC(N)(C3)C2 [memantine]     AUC(0-inf)                0.594

====

Test: Stability in rat liver microsomes
Format: in vitro ADME
Details: 0.5 mg/mL pooled male microsomes, read-out: Intrinsic Clearance (Cl int) Liver Microsomes
quantity_name: microsomal CLint at 1 μM (µL/min/mg)

> print(dat)
                                  compound  experimental.result
1  CC12CC3CC(C)(C1)CC(N)(C3)C2 [memantine]                 50.4
